// compounds with pIC50 on UniProt P21589, multi-source literature
pIC50: −log10 of the molar value.
measurement-label: pIC50

NC(=O)c1cc(S(=O)(=O)Nc2ccc(CCCNc3cc4nc(-c5ccco5)nn4c(N)n3)cc2)cc(Cl)c1O    < 6.00
CCS(=O)(=O)C[C@@](C)(OC[C@H]1O[C@@H](n2ncc3c(NC4CCCC4)nc(Cl)nc32)[C@H](O)[C@@H]1O)P(=O)(O)O    ≥ 7.00
O=P(O)(O)[C@@H](CO)OC[C@H]1O[C@@H](n2nnc3c(NC4CCCC4)cc(Cl)nc32)[C@H](O)[C@@H]1O    ≥ 7.00
O=C(NC1CCCCC1)O[C@H]1CCN(c2cn[nH]c(=O)c2Cl)C1    5.00 to 9.00
O=C(N[C@@H]1CC[C@@H](O)C1)O[C@@H]1CCN(c2cn[nH]c(=O)c2Cl)C1    5.00 to 9.00
O=C(N[C@H]1CC[C@H](NS(=O)(=O)c2ccc(F)cc2)CC1)O[C@@H]1CCN(c2cn[nH]c(=O)c2Cl)C1    5.00 to 9.00
O=P(O)(O)CP(=O)(O)OC[C@H]1O[C@@H](n2ncc3c(N[C@@H]4CCc5ccc(F)cc54)cc(Cl)nc32)[C@H](O)[C@@H]1O    9.49
O=P(O)(O)COC[C@H]1O[C@@H](n2ncc3c(NCc4cccc(Cl)c4F)nc(Cl)nc32)[C@H](O)[C@@H]1O    ≥ 6.30
N#CC1(NC(=O)NC2CCCC2)CCN(c2cn[nH]c(=O)c2Cl)C1 (stereo not drawn)    4.00 to 5.00

* * *

Let's look at some pIC50 data for CD73 (Homo sapiens (Human)) that I collected from the literature.
pIC50: −log10 of the molar value.
measurement-label: pIC50

CCOC(=O)OCOP(=O)(O)CC(=O)N(C)C[C@H]1O[C@@H](n2cnc3c(NC4CCCC4)nc(Cl)nc32)[C@H](O)[C@@H]1O    < 6.00
N#Cc1c(N2CC[C@@H](OC(=O)NC3CCN(C4CCCC4)CC3)C2)cn[nH]c1=O    5.00 to 9.00
CNS(=O)(=O)N[C@H]1CC[C@H](NC(=O)O[C@@H]2CCN(c3cn[nH]c(=O)c3Cl)C2)CC1    5.00 to 9.00
Cc1nonc1C(=O)N1CCC(NC(=O)O[C@@H]2CCN(c3cn[nH]c(=O)c3Cl)C2)CC1    5.00 to 9.00
O=P(O)(O)C(CO)(COCc1nnn[nH]1)OC[C@H]1O[C@@H](c2cnn3c(NC4CCCC4)cc(Cl)nc23)[C@H](O)[C@@H]1O (some centres unmarked)    ≥ 9.30

* * *

Literature-derived IC50 for CD73 (Homo sapiens (Human), UniProt P21589) follows.
measurement-label: IC50

CN(c1cc(Cl)nc2c1cnn2[C@@H]1O[C@H](COP(=O)(O)CP(=O)(O)O)[C@@H](O)[C@H]1O)[C@H]1CCc2ccccc21    0.16 nM
N#Cc1cccc(CNc2nc(Cl)nc3c2cnn3[C@@H]2O[C@H](COCP(=O)(O)O)[C@@H](O)[C@H]2O)c1    ≤ 500 nM
C[C@@]1(c2ccc3c(NC4CCCC4)nc(Cl)nn23)O[C@H](COC(CO)(COCc2nnn[nH]2)P(=O)(O)O)[C@@H](O)[C@H]1O (some centres unmarked)    100 to 1000 nM
O=P(O)(O)C(CO)(CO)OC[C@H]1O[C@@H](c2ccc3c(NCc4ccccc4Cl)nc(Cl)nn23)[C@H](O)[C@@H]1O    1 to 100 nM
COC[C@@](C)(OC[C@H]1O[C@@H](n2ncc3c(NC4CCCC4)nc(Cl)nc32)[C@H](O)[C@@H]1O)P(=O)(O)O    ≤ 100 nM
CC1(C)CCCC(NC(=O)O[C@@H]2CCN(c3cn[nH]c(=O)c3Cl)C2)C1 (some centres unmarked)    1 to 10000 nM
O=C(NC1CCN(C(=O)Nc2ccccc2C(F)(F)F)CC1)O[C@@H]1CCN(c2cn[nH]c(=O)c2Cl)C1    1 to 10000 nM
COC[C@](OC[C@H]1O[C@@H](c2ccc3c(NC4CCCC4)nc(Cl)nn23)[C@H](O)[C@@H]1O)(C(=O)O)P(=O)(O)O    1 to 100 nM
O=C(NC1CCN(C(=O)Cc2ccc(Cl)c(F)c2)CC1)O[C@@H]1CCN(c2cn[nH]c(=O)c2Cl)C1    1 to 10000 nM
CC(C)N1CCC(NC(=O)O[C@@H]2CCN(c3cn[nH]c(=O)c3Cl)C2)CC1    1 to 10000 nM
O=C(N[C@@H]1CCC(F)(F)C1)O[C@@H]1CCN(c2cn[nH]c(=O)c2Cl)C1    1 to 10000 nM
O=P(O)(O)COC[C@H]1O[C@@H](n2ncc3c(NC[C@H]4CCOC4)nc(Cl)nc32)[C@H](O)[C@@H]1O    ≤ 500 nM
C[C@H](Nc1cc(Cl)nc2c1cnn2[C@@H]1O[C@H](COP(=O)(O)CP(=O)(O)O)[C@@H](O)[C@H]1O)c1ccc(S(F)(F)(F)(F)F)cc1    2.4 nM
O=P(O)(O)[C@](CO)(COCc1nn[nH]n1)OC[C@H]1O[C@@H](c2ccc3c(N[C@@H]4CCc5ccccc54)nc(Cl)nn23)[C@H](O)[C@@H]1O    ≤ 0.5 nM
O=P(O)(O)CP(=O)(O)OC[C@H]1C[C@@H](c2ccc3c(N[C@H]4CCc5ccc(F)cc54)nc(Cl)nn23)[C@H](O)[C@@H]1O    15 nM
C[C@H]1CCC[C@H]1Nc1nc(Cl)nc2c1cnn2[C@@H]1O[C@H](COCP(=O)(O)O)[C@@H](O)[C@H]1O    ≤ 500 nM
O=C(N[C@H]1CC[C@@H](NC2CCCCC2)CC1)O[C@@H]1CCN(c2cn[nH]c(=O)c2Cl)C1    1 to 10000 nM

* * *

pIC50: −log10 of the molar value.
Field: pIC50. System: CD73 (Homo sapiens (Human), UniProt P21589). Provenance: assorted publications.
measurement-label: pIC50

O=C(Nc1cccc(C(F)(F)F)c1)N[C@@H]1CCN(c2cn[nH]c(=O)c2Cl)C1    4.00 to 5.00
O=P(O)(O)CP(=O)(O)OC[C@H]1O[C@@H](n2ncc3c(N[C@@H]4CCc5ccc(C(F)(F)F)cc54)cc(Cl)nc32)[C@H](O)[C@@H]1O    9.15
CC(F)(F)[C@@H]1CCC[C@H]1NC(=O)O[C@@H]1CCN(c2cn[nH]c(=O)c2Cl)C1    5.00 to 9.00
O=P(O)(O)C(CO)OC[C@H]1O[C@@H](c2ccc3c(NC4CCCC4)nc(Cl)nn23)[C@H](O)[C@@H]1O (stereo partly shown)    7.00 to 9.00
COCC(C)(OC[C@H]1O[C@H](n2nnc3c(N[C@@H]4CCc5ccccc54)nc(Cl)nc32)[C@H](O)[C@@H]1O)P(=O)(O)O (stereo partly shown)    ≥ 7.00
O=C(NC1CCN(C(=O)Nc2cc(Cl)cc(Cl)c2)CC1)O[C@@H]1CCN(c2cn[nH]c(=O)c2Cl)C1    5.00 to 9.00
O=C(N[C@H]1CC[C@H](NC(=O)c2c(F)cccc2F)CC1)O[C@@H]1CCN(c2cn[nH]c(=O)c2Cl)C1    5.00 to 9.00
O=C(N[C@H]1CC[C@H](NS(=O)(=O)c2cccs2)CC1)O[C@@H]1CCN(c2cn[nH]c(=O)c2Cl)C1    5.00 to 9.00
CC(C)C(=O)N1CCC(NC(=O)O[C@@H]2CCN(c3cn[nH]c(=O)c3Cl)C2)CC1    5.00 to 9.00
CC(C)(C)C(=O)N[C@H]1CC[C@@H](NC(=O)O[C@@H]2CCN(c3cn[nH]c(=O)c3Cl)C2)CC1    5.00 to 9.00
O=C(N[C@@H]1CCC[C@H]1F)O[C@@H]1CCN(c2cn[nH]c(=O)c2Cl)C1    5.00 to 9.00
Cc1noc(C)c1NC(=O)N[C@@H]1CCN(c2cn[nH]c(=O)c2Cl)C1    5.00 to 9.00
O=C(NC1CCN(C(=O)Cc2ccccc2Cl)CC1)O[C@@H]1CCN(c2cn[nH]c(=O)c2Cl)C1    5.00 to 9.00
O=C(Nc1ccc(Cl)cc1)N[C@H]1CC[C@H](NC(=O)O[C@@H]2CCN(c3cn[nH]c(=O)c3Cl)C2)CC1    5.00 to 9.00
CC1(NC(=O)O[C@@H]2CCN(c3cnn(CCO)c(=O)c3Cl)C2)CCCC1    5.00 to 9.00
N#Cc1ccc(C(=O)N[C@H]2CC[C@H](NC(=O)O[C@@H]3CCN(c4cn[nH]c(=O)c4Cl)C3)CC2)cc1    5.00 to 9.00
